# System: MEF A1-2A-BIM cells, caspase 3/7 luminescence, 3 h
# Assay Overview: inducers of caspase signal in A1-dependent MEFs – cell-based, luminescence, retest, A1 inhibitor project, dose response (AID 2765)
Active and inactive are the calls of the source.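 The calls were made as follows: active = half-maximal concentration for the rise in caspase light signal at or below ten times the top tested dose; inconclusive = flat fit between 30% and 70% activity, or unreliable curve fit; inactive = the rest.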
Labels: active, inactive

| Compound | Class Label |
| --- | --- |
| CCOC(=O)CSc1nnc(Cc2ccc(OC)cc2)n1-c1ccccc1 | inactive |
| COc1ccc(CC(=O)Nc2ccc3c(c2)CCC3)cc1S(=O)(=O)N1CCOCC1 | inactive |
| CCOc1ccccc1/C=C/c1nc2ccccc2[nH]c1=O | inactive |
| N#Cc1cc(C(=O)c2cc(Br)ccc2O)cn(C2CC2)c1=O | inactive |
| CCOC(=O)CN1C(=O)CC(c2ccc([N+](=O)[O-])cc2)C1=O (stereo unspecified) | inactive |
| COc1ccc(OC)c2sc(N(CCCN(C)C)C(=O)c3ccc(S(=O)(=O)N4CCc5ccccc5C4)cc3)nc12 | inactive |
| COC(=O)c1ccc(Cl)cc1NC(=O)/C=C/c1ccc(C)o1 | inactive |
| Cc1occc1-c1nnc(-c2cc([N+](=O)[O-])cc([N+](=O)[O-])c2)o1 | inactive |
| CC(=O)Nc1ccc(/C(C)=N/Nc2nc(Nc3ccccc3)nc(N3CCOCC3)n2)cc1 | inactive |
| O=C(N/N=C/c1ccco1)c1cc(-c2cccc(Br)c2)nc2ccccc12 | inactive |
| COc1cc(CN2CCCC(C(=O)Nc3ccccc3Oc3cccnc3)C2)ccc1F (stereo unspecified) | inactive |
| Cc1ccc(-n2nc3c(=O)n(CC(=O)NCCC4=CCCCC4)nc(C)c3c2C)cc1 | inactive |
| CC1=C(C(N)=O)C(c2ccc3c(c2)OCO3)n2nc(-c3cccc(C)c3)nc2N1 (stereo unspecified) | inactive |
| O=C1NCCCC1C(=O)N/N=C/c1cccc([N+](=O)[O-])c1 (stereo unspecified) | inactive |
| CCOc1cc(/C=N/N=C(\N)c2nonc2N)cc(Br)c1OCc1cccc2ccccc12 | active |
| CCOC(=O)[C@H]1[C@H]2COc3cc(OC)ccc3[C@@H]2N2C(=O)c3ccc(C)cc3NC(=O)[C@@]12C | inactive |
| CCCc1nc2sc3c(c2c(=O)n1N)CCC3 | inactive |
| CN(CC(=O)Nc1ccccc1Cl)CC(=O)Nc1cccc2ccccc12 | inactive |
| Cc1ccc(S(=O)(=O)NCCN2CCOCC2)cc1 | inactive |
| Cc1coc(NC(=O)CSc2nc(-c3ccc(Cl)cc3)cc(C(F)(F)F)c2C#N)n1 | inactive |
| COc1ccc(C(=O)COC(=O)CNS(=O)(=O)c2ccc(C)cc2)cc1 | inactive |

----------
# Test system: MEF A1-2A-BIM cells, caspase 3/7 luminescence, 3 h
# Assay Overview: inducers of caspase signal in A1-dependent MEFs – cell-based, luminescence, retest, A1 inhibitor project, dose response (AID 2765)
Active and inactive are the calls of the source.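 The calls were made as follows: active = half-maximal concentration for the rise in caspase light signal at or below ten times the top tested dose; inconclusive = flat fit between 30% and 70% activity, or unreliable curve fit; inactive = the rest.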
Labels: YES for active, NO for inactive

| Molecule | Class Label |
| --- | --- |
| COCCCNC(=O)c1cccc(S(=O)(=O)N2CC3(C)CC2CC(C)(C)C3)c1 (centres undefined) | NO |
| Cc1noc(C)c1S(=O)(=O)N(C)C[C@H]1Oc2ccc(NC(=O)CCC(F)(F)F)cc2C(=O)N([C@H](C)CO)C[C@@H]1C | NO |
| CN(C)S(=O)(=O)c1cccc(C(=O)Nc2n[nH]c(C(F)(F)F)n2)c1 | NO |
| COc1cccc(-c2cc(C(F)(F)F)c(C#N)c(=O)[nH]2)c1 | NO |
| O=C(CN(c1ccc(Br)cc1)S(=O)(=O)c1ccc(Cl)c([N+](=O)[O-])c1)NCCc1ccccc1 | NO |
| CC(=O)OC(C)(C)/C=C/C(=O)C(C)(O)C1[C@H](O)C[C@@]2(C)C3CC=C4C(CC[C@@H](O)C4(C)C)[C@]3(CO)C(=O)C[C@]12C (some centres undefined) | NO |
| COc1ccc(-c2ccc3c(c2)S(=O)(=O)c2cccc(C(=O)NCc4cccc(OC(F)(F)F)c4)c2C3=O)cc1OC | YES |
| Cn1cnc([N+](=O)[O-])c1S(=O)(=O)c1cccc(Cl)c1 | NO |
| Cc1c(C(c2ccccc2O)c2c(C)n(C)n(-c3ccccc3)c2=O)c(=O)n(-c2ccccc2)n1C | NO |
| O=C(c1cc2sccc2n1Cc1ccc(F)cc1)N1CCCc2ccccc21 | NO |
| Cc1noc(C)c1COc1ccc(C(=O)OC(C)C(=O)Nc2ccc(N3CCOCC3)cc2)cc1 (centres undefined) | NO |
| CC(=O)Nc1ccc(C(=O)CN2C(=O)NC3(CCCc4ccccc43)C2=O)c(F)c1 (centres undefined) | NO |
| CS(=O)(=O)Nc1ccc(C2=NN(S(C)(=O)=O)C(c3ccccc3)C2)cc1 (centres undefined) | NO |
| COc1ccc(CC(=O)NCCN2CCOCC2)cc1 | NO |
| O=C(NCCCNc1ccc(C(F)(F)F)cc1[N+](=O)[O-])c1ccc(F)cc1 | NO |
| N#CCn1nnc(-c2ccc3c(c2)OCO3)n1 | NO |
| Clc1ccc(C(Cn2ccnc2)OCc2c(Cl)cccc2Cl)c(Cl)c1 (centres undefined) | NO |
| COc1c(Br)cc([N+](=O)[O-])c(OC)c1C(=O)NC(=O)Nc1nc(C)cc(C)n1 | NO |
| O=C(NNC(=O)c1cc(C(F)(F)F)cc(C(F)(F)F)c1)c1ccc(Cl)cc1 | NO |
